tested on: HeLa; experiment: Antiproliferative activity against human HeLa cells after 48 hrs by MTT assay; type: functional, cell-based
Value Type: IC50 (µM)
Kindly answer with a numeric value in µM, unit omitted.

API: value(readout= IC50, system= HeLa, query= "O=C(Nc1ccc(-c2c(-c3ccc(OCCN4CCCC4)cc3)c3ccccc3oc2=O)cc1)c1cccc(C(=O)Nc2ccc(-c3c(-c4ccc(OCCN5CCCC5)cc4)c4ccccc4oc3=O)cc2)c1" )
31

API: value(readout= IC50, system= HeLa, query= "O=C(CCCCC(=O)Nc1ccc(-c2c(-c3ccc(OCCN4CCCC4)cc3)c3ccccc3oc2=O)cc1)Nc1ccc(-c2c(-c3ccc(OCCN4CCCC4)cc3)c3ccccc3oc2=O)cc1" )
36.4

API: value(readout= IC50, system= HeLa, query= "O=C(CC(=O)Nc1ccc(-c2c(-c3ccc(OCCN4CCCCC4)cc3)c3ccccc3oc2=O)cc1)Nc1ccc(-c2c(-c3ccc(OCCN4CCCCC4)cc3)c3ccccc3oc2=O)cc1" )
7.82

Reference source for all entries: ChEMBL document CHEMBL3286304
